Experiment: Preliminary pharmacokinetic tests in mice
Type: in vivo
Details: male, ICR, iv; mouse plasma, i.v.(1mg/kg)
Examples of compounds with documented AUC(0-t) follow.
Numbers only; they are read as ng·h/mL.

compound	obs value
CNC(=O)c1ccc(N2CCN(Cc3cc4c5c(cnn5C5(CC5)C(=O)N4)c3)C[C@H]2C)c(C)n1 [Compound 40]	4410

Task: Bench note: what AUC(0-t) did CNC(=O)c1ccc(N2CCN(Cc3cc4c5c(cnn5C(C)C(=O)N4)c3)CC2)c(Cl)n1 (centres unmarked) [Compound 6] show?
Output: 5030

###

Examples of compounds with documented pIC50 follow.
Biological target: Recombinant human PARP1 protein (Homo sapiens)
Sequence (P09874 whole entry): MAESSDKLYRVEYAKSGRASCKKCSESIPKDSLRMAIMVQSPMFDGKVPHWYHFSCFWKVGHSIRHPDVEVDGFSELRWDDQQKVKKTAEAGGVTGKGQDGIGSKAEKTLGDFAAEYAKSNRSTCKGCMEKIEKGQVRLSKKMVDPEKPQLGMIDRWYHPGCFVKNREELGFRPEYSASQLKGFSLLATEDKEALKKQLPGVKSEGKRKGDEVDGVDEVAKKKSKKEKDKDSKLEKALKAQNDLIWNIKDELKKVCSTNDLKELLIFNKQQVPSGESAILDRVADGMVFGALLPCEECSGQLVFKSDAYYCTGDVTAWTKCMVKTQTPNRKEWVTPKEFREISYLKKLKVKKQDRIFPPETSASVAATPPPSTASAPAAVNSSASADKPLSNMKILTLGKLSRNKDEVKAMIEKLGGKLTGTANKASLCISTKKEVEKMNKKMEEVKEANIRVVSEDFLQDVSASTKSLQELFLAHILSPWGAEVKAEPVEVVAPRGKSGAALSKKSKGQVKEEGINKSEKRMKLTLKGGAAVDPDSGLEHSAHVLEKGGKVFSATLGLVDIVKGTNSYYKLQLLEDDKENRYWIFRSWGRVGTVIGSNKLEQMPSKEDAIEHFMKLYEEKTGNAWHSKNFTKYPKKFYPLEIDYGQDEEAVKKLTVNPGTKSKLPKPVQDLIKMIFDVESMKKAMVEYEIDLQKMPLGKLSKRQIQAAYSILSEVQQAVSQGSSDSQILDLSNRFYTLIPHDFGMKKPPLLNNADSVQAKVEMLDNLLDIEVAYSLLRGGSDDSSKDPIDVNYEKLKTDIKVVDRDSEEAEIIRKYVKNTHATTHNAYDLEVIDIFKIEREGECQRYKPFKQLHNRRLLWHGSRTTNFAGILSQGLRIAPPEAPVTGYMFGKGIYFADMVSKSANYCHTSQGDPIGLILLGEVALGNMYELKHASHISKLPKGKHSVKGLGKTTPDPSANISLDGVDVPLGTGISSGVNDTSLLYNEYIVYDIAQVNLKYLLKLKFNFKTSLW
Assay: PARP1 inhibitory activity (histone substrate, chemiluminescent ELISA)
Type: biochemical
Details: histone substrate; 500 µM NAD+ added to the substrate solution; read-out: PARP1 IC50
Reminder that pIC50 means the negative base-10 logarithm of the concentration expressed in mol/L.

compound	experimental system	obs value
CNC(=O)c1ccc(N2CCN(Cc3cn4ncc5c4c(c3C)NC(=O)N5C3CC3)CC2)c(C)n1	Recombinant human PARP1 protein (Homo sapiens)	8.48
CNC(=O)c1ccc(N2CCN(Cc3cc4c5c(c3)ncn5[C@H](C3CC3)C(=O)N4)CC2)c(C)n1	Recombinant human PARP1 protein (Homo sapiens)	8.82
CNC(=O)c1ccc(N2CCN(Cc3cc4c5c(cnn5[C@@H](C5CC5)C(=O)N4)c3)CC2)c(Cl)n1	Recombinant human PARP1 protein (Homo sapiens)	8.78
CNC(=O)c1ccc(N2CCN(Cc3cc4c5c(cnn5c3)N(CCO)C(=O)N4)CC2)c(C)n1	Recombinant human PARP1 protein (Homo sapiens)	8.68
CNC(=O)c1ccc(N2CCN(Cc3cc4c5c(c3)ncn5[C@@H](C3CC3)C(=O)N4)CC2)c(C)n1	Recombinant human PARP1 protein (Homo sapiens)	9.15
CCC1C(=O)Nc2cc(CN3CCN(c4ccc(C(=O)NC)nc4F)CC3)cc3cnn1c23 (stereo not drawn)	Recombinant human PARP1 protein (Homo sapiens)	9.11

Task: Bench note: what pIC50 did CNC(=O)c1ccc(N2CCN(Cc3cc4c5c(c3)ncn5[C@H](C3CC3)C(=O)N4)CC2)c(Cl)n1 show?
Output: 8.92

###

Assay: Preliminary pharmacokinetic tests in mice
Type: in vivo
Details: male, ICR, po; mouse plasma, p.o.(5mg/kg)
Examples of compounds with documented half-life follow.

compound	half-life
CNC(=O)c1ccc(N2CCN(Cc3cc4c5c(cnn5C(C)C(=O)N4)c3)CC2)c(Cl)n1 (centres unmarked) [Compound 6]	2.7 h

API: the following record is the query input.
Task: Bench note: what half-life did CNC(=O)c1ccc(N2CCN(Cc3cc4c5c(cnn5C5(CC5)C(=O)N4)c3)C[C@H]2C)c(C)n1 [Compound 40] show?
Output: 3.1 h

###

Target: recombinant human PARP2 protein (Homo sapiens)
Construct: purchased BPS 80502
Sequence (Q9UGN5 whole entry): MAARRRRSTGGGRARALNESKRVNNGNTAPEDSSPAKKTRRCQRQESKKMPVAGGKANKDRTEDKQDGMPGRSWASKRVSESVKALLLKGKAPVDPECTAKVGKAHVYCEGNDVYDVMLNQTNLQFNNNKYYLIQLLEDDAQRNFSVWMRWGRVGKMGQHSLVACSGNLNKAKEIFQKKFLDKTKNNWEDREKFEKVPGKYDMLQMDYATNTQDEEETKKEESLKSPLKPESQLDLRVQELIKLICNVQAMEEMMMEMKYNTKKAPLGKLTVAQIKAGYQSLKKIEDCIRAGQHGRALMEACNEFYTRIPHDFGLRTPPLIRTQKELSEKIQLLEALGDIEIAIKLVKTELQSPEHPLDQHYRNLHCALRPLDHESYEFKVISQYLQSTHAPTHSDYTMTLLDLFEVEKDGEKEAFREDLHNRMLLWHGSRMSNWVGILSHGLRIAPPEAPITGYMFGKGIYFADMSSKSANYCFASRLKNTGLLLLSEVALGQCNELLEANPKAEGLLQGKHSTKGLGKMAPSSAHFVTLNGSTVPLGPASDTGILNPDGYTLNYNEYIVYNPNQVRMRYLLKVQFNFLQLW
Assay: PARP2 inhibitory activity (histone substrate, chemiluminescent ELISA)
Type: biochemical
Details: histone substrate; read-out: PARP2 IC50
Each entry falls into one class according to its IC50; the ranges are L = under 300 nM, M = from 300 nM up to 1000 nM, H = 1000 nM and over

compound	qualitative label
CNC(=O)c1ccc(N2CCN(Cc3cc4cnn5c4c(c3F)NC(=O)C53CC3)CC2)c(Cl)n1	L

Task: For CNC(=O)c1ccc(N2CCN(Cc3cc4c5c(cnn5[C@@H](C5CC5)C(=O)N4)c3)CC2)c(Cl)n1 , which IC50 bin applies?
Output: M

Task: Let us now turn to CNC(=O)c1ccc(N2CCN(Cc3cc4c5c(c3)ncn5[C@H](C3CC3)C(=O)N4)CC2)c(Cl)n1
Output: L

Task: Let us now turn to CNC(=O)c1ccc(N2CCN(Cc3cc4c5c(cnn5C5(CC5)C(=O)N4)c3)C[C@H]2C)c(C)n1
Output: L

Task: Let us now turn to CNC(=O)c1ccc(N2CCN(Cc3cc4c5c(c3)ncn5[C@@H](C3CC3)C(=O)N4)CC2)c(C)n1
Output: H

Task: Let us now turn to CNC(=O)c1ccc(N2CCN(Cc3cc4c5c(cnn5c3)N(CCO)C(=O)N4)CC2)c(C)n1
Output: H

Task: Let us now turn to CNC(=O)c1ccc(N2CCN(Cc3cc4c5c(cnn5c3)N(C3CCC3)C(=O)N4)C[C@H]2C)c(C)n1
Output: M

Task: Let us now turn to CCCN1C(=O)Nc2cc(CN3CCN(c4ccc(C(=O)NC)nc4C)CC3)cn3ncc1c23
Output: H

Task: Let us now turn to CNC(=O)c1ccc(N2CCN(Cc3cc4c5c(c3)ncn5[C@H](C3CC3)C(=O)N4)CC2)c(C)n1
Output: M

Task: Let us now turn to CNC(=O)c1ccc(N2CCN(Cc3cc4c5c(c3)ncn5C(C3CCC3)C(=O)N4)CC2)c(Cl)n1 (stereo not drawn)
Output: H

Task: Let us now turn to CNC(=O)c1ccc(N2CCN(Cc3cc4c5c(cnn5c3)N(C(C)C)C(=O)N4)CC2)c(C)n1
Output: H

Task: Let us now turn to CNC(=O)c1ccc(N2CCN(Cc3cc4c5c(cnn5[C@H](C5CC5)C(=O)N4)c3)CC2)c(Cl)n1
Output: L

Task: Let us now turn to CNC(=O)c1ccc(N2CCN(Cc3cn4ncc5c4c(c3C)NC(=O)N5C3CC3)CC2)c(C)n1
Output: H

Task: Let us now turn to CNC(=O)c1ccc(N2CCN(Cc3cc4c5c(cnn5c3)N(C3CC3)C(=O)N4)CC2)c(C)n1
Output: L

Data origin, for the record: patent EP4759815A1
